Tested on: U251 CNS
Experiment: NCI tumour cell line growth inhibition, 48 h
Listing: TGI of selected compounds

[
  {
    "Compound": "CNCCNc1c2c(c(NCCNC)c3[nH]ccc13)C(=O)c1ccccc1C2=O",
    "Target Of Assay": "U251 CNS",
    "TGI": "0.615 µM"
  },
  {
    "Compound": "COc1ccc(-n2cc(-c3cc(OC)c(OC)c(OC)c3)nc2SCc2ccccc2)cc1OC",
    "Target Of Assay": "U251 CNS",
    "TGI": "> 100 µM"
  },
  {
    "Compound": "O=C(O)CNS(=O)(=O)c1ccc(NC(=O)CI)cc1",
    "Target Of Assay": "U251 CNS",
    "TGI": "35 µM"
  },
  {
    "Compound": "S=C1CSc2c(ccc3ccccc23)N1",
    "Target Of Assay": "U251 CNS",
    "TGI": "> 100 µM"
  },
  {
    "Compound": "c1ccc2cc3[s+]snc3cc2c1",
    "Target Of Assay": "U251 CNS",
    "TGI": "> 100 µM"
  },
  {
    "Compound": "COc1c(Br)cc(/C=C(\\C#N)c2cccnc2)cc1Br",
    "Target Of Assay": "U251 CNS",
    "TGI": "> 100 µM"
  },
  {
    "Compound": "O=C(O)CCC(NC(=O)c1ccccc1)C(=O)O (stereo unspecified)",
    "Target Of Assay": "U251 CNS",
    "TGI": "> 100 µM"
  },
  {
    "Compound": "O=C1CCCC(=O)N1CCc1c[nH]c2ccccc12",
    "Target Of Assay": "U251 CNS",
    "TGI": "> 100 µM"
  },
  {
    "Compound": "COc1cc([C@H]2CC(=O)C[C@H](c3cc(OC)c(OC)c(OC)c3)C23C(=O)c2ccccc2C3=O)cc(OC)c1OC",
    "Target Of Assay": "U251 CNS",
    "TGI": "> 100 µM"
  },
  {
    "Compound": "CC(C)(C)OC(=O)NC(CCC(=O)OCc1ccccc1)C(=O)NCCCO (stereo unspecified)",
    "Target Of Assay": "U251 CNS",
    "TGI": "> 100 µM"
  },
  {
    "Compound": "O=C(O)NCC1CCCCC1 (tested in a mixture with another compound)",
    "Target Of Assay": "U251 CNS",
    "TGI": "20.3 µM"
  }
]
